Assay: Steady state kinetics of purified NTR, variable substrate CB1954
Format: biochemical
Details: variable substrate CB1954, fixed substrate NADH
Entries and their Km values follow.
Give just the numeric value; µM need not be written.

Solved cases (2 shown):
T41L: NTR mutant, threonine 41 to leucine (protein) MDIISVALKRHSTKAFDASKKLTPEQAEQIKTLLQYSPSSLNSQPWHFIVASTEEGKARVAKSAAGNYVFNERKMLDASHVVVFCAKTAMDDVWLKLVVDQEDADGRFATPEAKAANDKGRKFFADMHRKDLHDDAEWMAKQVYLNVGNFLLGVAALGLDAVPIEGFDAAILDAEFGLKEKGYTSLVVVPVGHHSVEDFNATLPKSRLPQNITLTEV = 871
Wild type: wild-type E. coli nitroreductase (NTR) encoded by the NfsB gene, SEQ ID NO:1 (protein, listed as Escherichia coli) MDIISVALKRHSTKAFDASKKLTPEQAEQIKTLLQYSPSSTNSQPWHFIVASTEEGKARVAKSAAGNYVFNERKMLDASHVVVFCAKTAMDDVWLKLVVDQEDADGRFATPEAKAANDKGRKFFADMHRKDLHDDAEWMAKQVYLNVGNFLLGVAALGLDAVPIEGFDAAILDAEFGLKEKGYTSLVVVPVGHHSVEDFNATLPKSRLPQNITLTEV = 852

Continue with the next molecule.
-- ask Field request: Km | item: Y68G: NTR mutant, tyrosine 68 to glycine (protein) MDIISVALKRHSTKAFDASKKLTPEQAEQIKTLLQYSPSSTNSQPWHFIVASTEEGKARVAKSAAGNGVFNERKMLDASHVVVFCAKTAMDDVWLKLVVDQEDADGRFATPEAKAANDKGRKFFADMHRKDLHDDAEWMAKQVYLNVGNFLLGVAALGLDAVPIEGFDAAILDAEFGLKEKGYTSLVVVPVGHHSVEDFNATLPKSRLPQNITLTEV
-- reply 1840
